test system: Wnt5a (protein binding on small-molecule microarray); experiment: Wnt5a binders on small-molecule microarray, primary screen, biophysical, 635/667 nm fluorescence (AID 1142); conditions: 635 nm fluorescence, higher = more signal;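 further: fluorescence read at 667 nm with signal to noise per printed feature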
Below, each entry is listed alongside its reported composite z-score.

{"compound": "CC(C)CON=C1C[C@@H](O)[C@@H](O)[C@@H]2[C@@H]3C(=O)N(C[C@@H]4CCCO4)C(=O)[C@@H]3CC[C@H]12", "tgt": "Wnt5a (protein binding on small-molecule microarray)", "composite z-score": -0.0313}
{"compound": "COc1cccc([C@H]2Oc3ccc(OC)cc3C(=NO[C@H](C)c3cn([C@@H]4COC[C@H]4O)nn3)[C@@H]2O)c1", "tgt": "Wnt5a (protein binding on small-molecule microarray)", "composite z-score": -0.104}
{"compound": "Cc1cc(C)c(-c2cc([C@H](C)ON=C3[C@H]4CCn5c(=O)n(-c6ccccc6)c(=O)n5[C@H]4[C@H](O)[C@@H]4O[C@H]34)on2)c(C)c1", "tgt": "Wnt5a (protein binding on small-molecule microarray)", "composite z-score": 0.266}
{"compound": "COCCNC(=O)OCC1CCCC2(CC(OC(=O)NCCc3ccc(F)cc3)CC(CCC(=O)N[C@@H](C)C(=O)OC)O2)O1 (some centres undefined)", "tgt": "Wnt5a (protein binding on small-molecule microarray)", "composite z-score": 0.156}
{"compound": "COCCOC(=O)N1C(=O)[C@@]2(c3cc(C#CC4(O)CCCCCC4)ccc31)[C@H](C(=O)N1CCN(c3ncccn3)CC1)[C@H]1C(=O)O[C@H](c3ccccc3)[C@H](c3ccccc3)N1[C@@H]2c1ccc(OCCO)cc1", "tgt": "Wnt5a (protein binding on small-molecule microarray)", "composite z-score": 0.495}
{"compound": "Cn1c(=O)n2n(c1=O)[C@H]1[C@H](O)[C@@H]3O[C@@H]3C(=NOC[C@@H](O)COCc3ccco3)[C@H]1CC2", "tgt": "Wnt5a (protein binding on small-molecule microarray)", "composite z-score": 0.0562}
{"compound": "CC(=O)O[C@H]1C2=C(C(=O)[C@@H]3O[C@@H]31)[C@H]1C(C)O[C@@H]2[C@@]23C(=O)[C@@H]4O[C@@H]4[C@@H](O)C2=CO[C@H](C)[C@@H]13 (some centres undefined)", "tgt": "Wnt5a (protein binding on small-molecule microarray)", "composite z-score": 0.129}
{"compound": "CC1CC/C=C\\[C@H]2OC34C=CCN(Cn5nnc6ccccc65)C(=O)[C@H]3N(CCO)C(=O)[C@@H]4C2C(=O)O1 (some centres undefined)", "tgt": "Wnt5a (protein binding on small-molecule microarray)", "composite z-score": -0.335}
{"compound": "COC(=O)[C@H](C)NC(=O)CCC1CC(OC(=O)NCc2cccc3ccccc23)CC2(CCCC(COC(=O)NCCc3ccc(Cl)cc3)O2)O1 (some centres undefined)", "tgt": "Wnt5a (protein binding on small-molecule microarray)", "composite z-score": -0.173}
{"compound": "CN(C)CCCNC(=O)[C@@H]1c2ccccc2C(=O)N(Cc2ccccc2)[C@H]1c1ccc(CO)cc1", "tgt": "Wnt5a (protein binding on small-molecule microarray)", "composite z-score": -0.142}
{"compound": "CCCNC(=O)[C@@H]1c2ccccc2C(=O)N(Cc2ccccc2Cl)[C@H]1c1ccc(CO)cc1", "tgt": "Wnt5a (protein binding on small-molecule microarray)", "composite z-score": 0.4}
{"compound": "CCc1cc2c(nc1CC)CCN(CCC(C)=NOC(C)CN1CCCc3nc(C)c(C)cc31)C2 (centres undefined)", "tgt": "Wnt5a (protein binding on small-molecule microarray)", "composite z-score": 0.56}
{"compound": "COCC(=C=CC[C@@H](O)c1ccccc1OCCO)CCO", "tgt": "Wnt5a (protein binding on small-molecule microarray)", "composite z-score": 0.0554}
{"compound": "CCOC(=O)[C@H](CC(C)C)NC(=O)CCC1CC(OC(=O)NCc2cccc3ccccc23)CC2(CCCC(COC(=O)NCCc3ccccc3OC)O2)O1 (some centres undefined)", "tgt": "Wnt5a (protein binding on small-molecule microarray)", "composite z-score": -0.0588}
